target: Transient receptor potential cation channel subfamily M member 8 (Rattus norvegicus, UniProt Q8R455); assay: Agonist activity at rat TRPM8 expressed in HEK293 cells assessed as induction of intracellular Ca2+ level by Fluo-4-AM dye based spectrofluorimetry; format: cell-based
Sequence (Q8R455 whole entry): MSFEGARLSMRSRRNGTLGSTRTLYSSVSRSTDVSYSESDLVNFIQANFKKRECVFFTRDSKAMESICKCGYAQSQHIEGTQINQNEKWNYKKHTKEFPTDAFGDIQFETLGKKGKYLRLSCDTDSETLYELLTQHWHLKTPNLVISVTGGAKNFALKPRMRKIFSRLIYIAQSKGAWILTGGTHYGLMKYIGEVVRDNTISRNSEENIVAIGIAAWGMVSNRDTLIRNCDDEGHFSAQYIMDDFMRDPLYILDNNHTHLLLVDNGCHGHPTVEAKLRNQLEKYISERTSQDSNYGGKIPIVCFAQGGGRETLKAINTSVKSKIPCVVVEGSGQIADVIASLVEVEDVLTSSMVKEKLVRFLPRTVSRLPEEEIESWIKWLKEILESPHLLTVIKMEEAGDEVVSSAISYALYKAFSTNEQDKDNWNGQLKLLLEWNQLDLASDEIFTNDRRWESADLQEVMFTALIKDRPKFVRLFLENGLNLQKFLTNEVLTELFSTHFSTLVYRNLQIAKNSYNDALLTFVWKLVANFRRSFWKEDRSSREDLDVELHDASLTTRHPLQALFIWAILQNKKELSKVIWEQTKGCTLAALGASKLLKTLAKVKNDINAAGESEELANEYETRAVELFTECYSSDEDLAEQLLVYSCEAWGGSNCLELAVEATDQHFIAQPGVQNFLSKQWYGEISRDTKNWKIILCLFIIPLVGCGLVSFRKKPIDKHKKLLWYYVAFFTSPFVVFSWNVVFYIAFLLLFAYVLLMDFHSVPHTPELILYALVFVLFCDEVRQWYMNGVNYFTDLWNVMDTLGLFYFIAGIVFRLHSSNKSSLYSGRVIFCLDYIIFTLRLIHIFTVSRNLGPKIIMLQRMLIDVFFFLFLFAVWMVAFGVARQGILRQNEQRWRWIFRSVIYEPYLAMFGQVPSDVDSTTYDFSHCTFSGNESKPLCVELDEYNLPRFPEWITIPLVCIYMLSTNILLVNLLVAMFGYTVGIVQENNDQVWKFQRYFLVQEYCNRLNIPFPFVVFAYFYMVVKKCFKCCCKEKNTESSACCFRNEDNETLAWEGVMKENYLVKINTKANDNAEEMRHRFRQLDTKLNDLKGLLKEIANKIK
Quantity Measured: EC50 (µM)
Could you give me the number in µM? Just the number is fine.

Observe how each entry below is paired with its result.
>>> assay_result("COc1ccccc1N1CC=C(c2cccc([N+](=O)[O-])c2)NC1=O")
1.1
>>> assay_result("O=C1NC(c2cccc([N+](=O)[O-])c2)=CCN1c1cccc(Cl)c1")
1.5
>>> assay_result("O=C1NC(c2cccc([N+](=O)[O-])c2)=CCN1c1ccccc1CO")
5
>>> assay_result("O=C1NC(c2cccc([N+](=O)[O-])c2)=CCN1c1cccc(Br)c1")
0.6
>>> assay_result("O=C1NC(c2cccc([N+](=O)[O-])c2)=CCN1c1cccc(O)c1")
1.7
>>> assay_result("Cc1ccc(N2CC=C(c3cccc([N+](=O)[O-])c3)NC2=O)c(O)c1")
1.2
>>> assay_result("COc1cccc(N2CC=C(c3cccc([N+](=O)[O-])c3)NC2=O)c1")
0.13
>>> assay_result("O=C1NC(c2cccc([N+](=O)[O-])c2)=CCN1c1cccc(I)c1")
0.3

IN: Look at this compound and give its reported EC50. NC(=O)c1ccccc1N1CC=C(c2cccc([N+](=O)[O-])c2)NC1=O
OUT: 15.4

IN: And what about the compound O=C1NC(c2cccc([N+](=O)[O-])c2)=CCN1c1ccccc1Br ?
OUT: 0.62

###

biological target: Transient receptor potential cation channel subfamily V member 1 (Homo sapiens, UniProt Q8NER1); assay: Antagonist activity against human TRPV1 expressed in HEK293 cells assessed as inhibition of capsaicin-induced intracellular Ca2+ level pre-treated 5 mins before capsaicin stimulation by Fluo-4-AM dye based spectrofluorimetry; type: cell-based
Sequence (Q8NER1 whole entry): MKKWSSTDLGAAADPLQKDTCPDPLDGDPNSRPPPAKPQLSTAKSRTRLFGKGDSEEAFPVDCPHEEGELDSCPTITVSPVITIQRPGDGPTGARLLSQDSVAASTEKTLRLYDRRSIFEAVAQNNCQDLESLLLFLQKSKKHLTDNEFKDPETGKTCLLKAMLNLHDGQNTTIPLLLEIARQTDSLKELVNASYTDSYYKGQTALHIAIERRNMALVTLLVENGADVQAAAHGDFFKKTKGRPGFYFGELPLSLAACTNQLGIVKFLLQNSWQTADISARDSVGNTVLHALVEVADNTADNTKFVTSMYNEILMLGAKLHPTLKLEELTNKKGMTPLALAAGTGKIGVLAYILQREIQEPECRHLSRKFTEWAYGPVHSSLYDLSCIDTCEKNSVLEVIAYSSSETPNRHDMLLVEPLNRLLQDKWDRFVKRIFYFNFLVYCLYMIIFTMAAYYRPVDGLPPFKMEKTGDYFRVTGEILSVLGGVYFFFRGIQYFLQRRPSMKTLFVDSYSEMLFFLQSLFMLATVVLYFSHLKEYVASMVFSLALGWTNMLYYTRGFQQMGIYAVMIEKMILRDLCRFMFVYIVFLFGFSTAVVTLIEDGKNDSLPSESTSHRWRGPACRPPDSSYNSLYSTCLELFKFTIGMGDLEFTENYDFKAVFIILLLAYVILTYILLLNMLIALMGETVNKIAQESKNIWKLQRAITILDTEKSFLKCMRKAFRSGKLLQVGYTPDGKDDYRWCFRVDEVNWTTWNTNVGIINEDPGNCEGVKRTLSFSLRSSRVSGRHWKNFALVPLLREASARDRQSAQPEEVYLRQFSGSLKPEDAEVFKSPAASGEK
Entries and their measured pIC50 follow.
Scale explanation: pIC50 corresponds to minus log10 of a concentration expressed in moles per litre.

Observe how each entry below is paired with its result.
>>> assay_result("O=C(/C=C/c1cccc([N+](=O)[O-])c1)Nc1cccc(CO)c1")
5.21
>>> assay_result("O=C(/C=C/c1cccc([N+](=O)[O-])c1)Nc1cccc(I)c1")
5.92
>>> assay_result("COc1cccc(NC(=O)/C=C/c2cccc([N+](=O)[O-])c2)c1")
5.68
>>> assay_result("O=C(/C=C/c1cccc([N+](=O)[O-])c1)Nc1cccc(Br)c1")
5.60
>>> assay_result("O=C(/C=C/c1cccc([N+](=O)[O-])c1)Nc1cccc(Cl)c1")
5.15
>>> assay_result("COc1ccccc1NC(=O)/C=C/c1cccc([N+](=O)[O-])c1")
4.97
>>> assay_result("CC(C)c1cccc(NC(=O)/C=C/c2cccc([N+](=O)[O-])c2)c1")
5.39

Let us move to another entry and its pIC50.
IN: Look at this molecule and give its reported pIC50. O=C(CCc1cccc([N+](=O)[O-])c1)Nc1cccc(I)c1
OUT: 5.37

###

Entries and their measured IC50 follow.
biological target: Transient receptor potential cation channel subfamily M member 8 (Rattus norvegicus, UniProt Q8R455); experiment: Antagonist activity against rat TRPM8 expressed in HEK293 cells assessed as inhibition of icilin-induced intracellular Ca2+ level pre-treated 5 mins before icilin stimulation by Fluo-4-AM dye based spectrofluorimetry
Could you give me the number in µM? Just the number is fine.

Observe how each entry below is paired with its result.
>>> assay_result("O=C1NC(c2cccc([N+](=O)[O-])c2)=CCN1c1ccccc1O [ICILLIN]")
0.058
>>> assay_result("O=C(CCc1cccc([N+](=O)[O-])c1)Nc1cccc(I)c1")
0.43
>>> assay_result("O=C1NC2=C(CCc3c2cccc3[N+](=O)[O-])CN1c1ccccc1O")
3.1

IN: Look at this compound and give its reported IC50. O=C1NC(c2cccc([N+](=O)[O-])c2)=CCN1c1ccccc1I
OUT: 3.2

IN: And what about the compound CC(C)c1cccc(NC(=O)/C=C/c2cccc([N+](=O)[O-])c2)c1 ?
OUT: 0.17

IN: And what about the compound CS(=O)(=O)Nc1cccc(N2CC=C(c3cccc([N+](=O)[O-])c3)NC2=O)c1 ?
OUT: 46.4

IN: And what about the compound CCNC(=O)c1ccccc1N1CC=C(c2cccc([N+](=O)[O-])c2)NC1=O ?
OUT: 22

IN: And what about the compound O=C1NC(c2cccc([N+](=O)[O-])c2)=CCN1c1ccccc1Cl ?
OUT: 0.95

IN: And what about the compound O=C1NC(c2cccc([N+](=O)[O-])c2)=CCN1c1cccc(Br)c1 ?
OUT: 1.5

IN: And what about the compound NC(=O)c1ccccc1N1CC=C(c2cccc([N+](=O)[O-])c2)NC1=O ?
OUT: 8.3

IN: And what about the compound O=C(/C=C/c1cccc([N+](=O)[O-])c1)Nc1ccccc1I ?
OUT: 1.05

IN: And what about the compound O=C1NC(c2cccc([N+](=O)[O-])c2)=CCN1c1ccccc1Br ?
OUT: 1.03

IN: And what about the compound Cc1ccc(O)c(N2CC=C(c3ccc([N+](=O)[O-])cc3)NC2=O)c1 ?
OUT: 16.9

IN: And what about the compound COc1ccc(N2CC=C(c3cccc([N+](=O)[O-])c3)NC2=O)cc1 ?
OUT: 40

IN: And what about the compound O=c1[nH]c(-c2cccc([N+](=O)[O-])c2)cn1-c1ccccc1O ?
OUT: 3.5

IN: And what about the compound O=C1NC(c2cccc([N+](=O)[O-])c2)=CCN1c1cccc(CO)c1 ?
OUT: 15.7

IN: And what about the compound Cc1cccc(NC(=O)/C=C/c2cccc([N+](=O)[O-])c2)c1 ?
OUT: 0.4

IN: And what about the compound O=C(/C=C/c1cccc([N+](=O)[O-])c1)Nc1cccc(CO)c1 ?
OUT: 6.5
